- target-system: T1, Human ACVR2A (human, UniProt P27037 20-135, limits assumed); also: test concentration or dose not given here
- T1 construct: also called activin receptor, type II A
- T1 sequence (P27037 20-135 limits assumed): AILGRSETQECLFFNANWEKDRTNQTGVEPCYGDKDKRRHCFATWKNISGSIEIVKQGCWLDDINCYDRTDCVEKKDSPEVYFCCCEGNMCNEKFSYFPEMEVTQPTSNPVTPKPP
- assay-name: ELISA
property-label: optical density
// unit must come after the numeric part

Worked examples follow.
- 369_A11 (antibody, V domains shown, VH/VL only) VH: EVQLLESGGGLVQPGGSLRLSCAASGFTFDSYGMNWVRQAPGKGLEWVANINYNGGYKGYADSVKGRFTISRDNSKNTLYLQMNSLRAEDTAVYYCARGATWHDTHLDYWGQGTLVTVSS VL: DIQMTQSPSSLSASVGDRVTITCRASQSIITYLNWYQQKPGKAPKLVIYAATSRHSGVPSRFSGSGSGTDFTLTISSLQPEDFATYYCQQSYESPLTFGGGTKVEIK: 2.64 OD
- 365_D10 (antibody, V domains shown, VH/VL only) VH: EVQLLESGGGLVQPGGSLRLSCAASGFTFSSYSMNWVRQAPGKGLEWVAGINYNGGYTGYADSVKGRFTISRDNSKNTLYLQMNSLRAEDTAVYYCARGATWHDTHLDYWGQGTLVTVSS VL: DIQMTQSPSSLSASVGDRVTITCRASQSISTYLNWYQQKPGKAPKLLIYAATSRASGVPSRFSGSGSGTDFTLTISSLQPEDFATYYCQQSYESPLTFGGGTKVEIK: 2.39 OD

Please report the recorded optical density for 365_B06 (antibody, V domains shown, VH/VL only) VH: EVQLLESGGGLVQPGGSLRLSCAASGFTFDSYGMHWVRQAPGKGLEWVSNINYNGGYKSYADSVKGRFTISRDNSKNTLYLQMNSLRAEDTAVYYCARSANWHDTALDYWGQGTLVTVSS VL: DIQMTQSPSSLSASVGDRVTITCRASQSILTYVNWYQQKPGKAPKLLIYATTSLASGVPSRFSGSGSGTDFTLTISSLQPEDFATYYCQQSYDLPLTFGGGTKVEIK .
2.25 OD

Where do the numbers come from? From patent US20210380703A1.
